Test system: sh-DNMT1 NCI-H82 cell
Assay: CellTiter-Glo cell viability, sh-DNMT1 NCI-H82 cell (DNMT1 knocked down)
Format: cell-based, human
Settings: Homo sapiens, NCI-H82, NCI-H82 with DNMT1 knocked down by shRNA, intracellular ATP, read-out: inhibitory effect on sh-DNMT1 NCI-H82 (IC50)
property: pIC50
Note on pIC50: it is the negative log10 of concentration, concentration in mol/L.

Observe how each entry below is paired with its result.
For reference, reported pIC50 for COc1ccc2c(c1OC)C(n1cccc1)N1CCc3cc4c(cc3C1=C2)OCO4 (stereo not drawn) stands at 5.58

molecule `CCOc1c(OC)ccc2c1CN1CCc3cc4c(cc3C1=C2)OCO4` , pIC50 observed: 5.40

pIC50 reported for this molecule COc1ccc2c(c1OCCCBr)CN1CCc3cc4c(cc3C1C2)OCO4 (stereo not drawn) : 5.07

Others:
# pIC50 of COc1ccc2c(c1OCCCCOc1ccccc1)C(C1CCCC1)N1CCc3cc4c(cc3C1=C2)OCO4 (stereo not drawn) = 5.30

// recorded pIC50 for CCCC1=C2c3cc4c(cc3CCN2C(C2CCCC2)c2c1ccc1c2OCO1)OCO4 (stereo not drawn) : 5.35

`COc1ccc2c(c1OC)CN1CCc3cc4c(cc3C1=C2)OCCO4` has a reported pIC50 of 5.49

Data point: COc1ccc2c(c1OC(=O)CC13CC4CC(CC(C4)C1)C3)C(C)N1CCc3cc4c(cc3C1=C2)OCO4 (stereo not drawn) ; pIC50 = 5.40

Recorded result, [2H]C1c2c(ccc(OC)c2OC)C=C2c3cc4c(cc3CC([2H])([2H])N21)OCO4 (stereo not drawn) , pIC50: 5.05

Reported pIC50 ( COc1ccc2c(c1OC)C(C)N1CCc3cc4c(cc3C1=C2CCc1ccccc1)OCO4 (stereo not drawn) ) = 5.36
